Kindly supply the reported IC50 values for the records listed here.

Task: Query for Glucocorticoid Receptor (GR) (Homo sapiens, UniProt P04150): what IC50 does the record show for Cc1cc(-c2nn(C)c3c2C(c2ccc(Br)cc2C)SCCN3)on1 (stereo not shown) [D.29] ?
Output: < 100 nM

Task: Query for Glucocorticoid Receptor (GR) (Homo sapiens, UniProt P04150): what IC50 does the record show for Cc1cc(C(=O)Nc2cccnc2C)ccc1C1SCC(C)Nc2c1c(-c1ccccn1)nn2C (stereo not shown) [H.6] ?
Output: < 100 nM

Task: Query for Glucocorticoid Receptor (GR) (Homo sapiens, UniProt P04150): what IC50 does the record show for Cc1cc(CCCO)ccc1[C@@H]1SC[C@@H](C)Nc2c1c(-c1ccccn1)nn2C (single isomer, unassigned) [M.51] ?
Output: < 100 nM

Task: Query for Glucocorticoid Receptor (GR) (Homo sapiens, UniProt P04150): what IC50 does the record show for CN(C)c1ccc(C2SCCNc3c2c(-c2ccccn2)nn3C)c(Cl)c1 (stereo not shown) [D.6] ?
Output: 100 to 1000 nM

Task: Query for Glucocorticoid Receptor (GR) (Homo sapiens, UniProt P04150): what IC50 does the record show for Cc1cc(OCc2cccnc2)ccc1C1SCCNc2c1c(-c1ccccn1)nn2C (stereo not shown) ?
Output: 100 to 1000 nM

Task: Query for Glucocorticoid Receptor (GR) (Homo sapiens, UniProt P04150): what IC50 does the record show for Cc1ccc(Br)cc1C1SC(C)(C)C=Nc2c1c(C1CC1)nn2C (stereo not shown) [D.54] ?
Output: 1000 to 10000 nM

Task: Query for Glucocorticoid Receptor (GR) (Homo sapiens, UniProt P04150): what IC50 does the record show for Cc1cc(Cl)ccc1C1SC(C)(C)CNc2c1c(C1CC1)nn2C (stereo not shown) [D.45] ?
Output: < 100 nM

Task: Query for Glucocorticoid Receptor (GR) (Homo sapiens, UniProt P04150): what IC50 does the record show for COC(=O)c1ccc(C2SCCNc3c2c(-c2ccccn2)nn3C)c(Cl)c1 (stereo not shown) [E.1] ?
Output: < 100 nM

Task: Query for Glucocorticoid Receptor (GR) (Homo sapiens, UniProt P04150): what IC50 does the record show for Cc1cc(Cl)ccc1C1SCCNc2c1c([C@@H]1CCCN1)nn2C (mixture of isomers) ?
Output: 1000 to 10000 nM

Task: Query for Glucocorticoid Receptor (GR) (Homo sapiens, UniProt P04150): what IC50 does the record show for Cc1nn(C)c2c1C(c1ccc(Cl)cc1Cl)SC1(CCC1)CN2 (stereo not shown) [D.66] ?
Output: < 100 nM

Task: Query for Glucocorticoid Receptor (GR) (Homo sapiens, UniProt P04150): what IC50 does the record show for Cc1cc2c(cnn2-c2ccc(F)cc2)cc1C1SCC(=O)Nc2c1c(-c1ccccn1)nn2C (racemic) ?
Output: < 100 nM

Task: Query for Glucocorticoid Receptor (GR) (Homo sapiens, UniProt P04150): what IC50 does the record show for "Cc1cc(Cl)ccc1[C@@H]1SC[C@@H](C)Nc2c1c(-c1ccccn1)nn2C" ?
Output: < 100 nM

Task: Query for Glucocorticoid Receptor (GR) (Homo sapiens, UniProt P04150): what IC50 does the record show for Cc1cc(C(=O)Nc2cccnc2C)ccc1C1SCC(CO)Nc2c1c(-c1ccccn1)nn2C (single isomer, unassigned) ?
Output: < 100 nM

Task: Query for Glucocorticoid Receptor (GR) (Homo sapiens, UniProt P04150): what IC50 does the record show for CN(C)c1ccc(-c2nn(C)c3c2C(c2ccc(Cl)cc2Cl)SCCN3)cc1 (stereo not shown) [D.31] ?
Output: 1000 to 10000 nM

Task: Query for Glucocorticoid Receptor (GR) (Homo sapiens, UniProt P04150): what IC50 does the record show for CCn1nc(-c2ccccn2)c2c1N[C@H](C)CS[C@@H]2c1ccc(C(N)=O)cc1C (single isomer, unassigned) [M.47] ?
Output: 100 to 1000 nM

Task: Query for Glucocorticoid Receptor (GR) (Homo sapiens, UniProt P04150): what IC50 does the record show for Cn1nc(-c2ccccn2)c2c1NCCSC2c1ccncc1Cl (stereo not shown) [D.7] ?
Output: < 100 nM

Task: Query for Glucocorticoid Receptor (GR) (Homo sapiens, UniProt P04150): what IC50 does the record show for Cc1nn(C)c2c1C(c1ccc(Cl)cc1Cl)SC(C)(C)CN2C (stereo not shown) ?
Output: 100 to 1000 nM

Task: Query for Glucocorticoid Receptor (GR) (Homo sapiens, UniProt P04150): what IC50 does the record show for Cn1nc(-c2ccccn2)c2c1NCCSC2c1ccc(Cl)cc1F (stereo not shown) [D.103] ?
Output: < 100 nM

Task: Query for Glucocorticoid Receptor (GR) (Homo sapiens, UniProt P04150): what IC50 does the record show for Cn1nc(-c2ccccn2)c2c1NCCSC2c1ccc(Cl)cc1C(F)(F)F (stereo not shown) [D.3] ?
Output: < 100 nM
